method.description: yeast display, Sf9 membrane polyspecificity reagent, FACS + sequencing; frameworks hold sequencing errors
observable: polyreactivity (PSR sort gate)

Would you please look over these solved cases?
QVQLVESGGGLVQAGGSLRLSCAASGRIIGLYALGWYRQATGKERELVAAISSAGSTYYADSVKGRFTISRDNAKNTVYLQMNSLKPEDTAVYYCAKSRYRGYDYWGQGTQVTVSS = low polyreactivity
QVQLVESGGGLVKAGGSLRLSCAASGRIFYNFSMGWSRQAHGKERELVAAISGSGGSTYYADSVKGRFTISRDNAKNTVYLQMNSLKPEDTAVYYCSTSGPQYYSRNFDYWGQGTQVTVSS = low polyreactivity
QVQLVESGGGLVQAGGSLRLSCAASGRTIRYYAMGWYRQAPGKERELVAAISWNGANTYYADSVKGRFTISRDNAKNTVYLQMNSLKPEDTAVYYCAATYYRWKGYDYWGQGTQVTVSS = high polyreactivity
QFQLVETGGGIVHAGGSLRLSCAASGSTFWYYAMGWYRQAPGKERELVAGITQSGGSTYYADSVKGRFTISRDNAKNTVYLQMNSLKPEDSAVYYFAKDGRVSGDFVYWGQGTQVTVSS = low polyreactivity
QVQLGESGGGLVQAGGSLRLSCAASGSTFAYNDMGWYRQAPGKEMELVADIRSGGNTKYADSVKGRFTISRDNAKNTVYFQMNSLKPEDTAVYYCATDGYRIDVYHPDYRYDYWGQGTQVTVSS = low polyreactivity

IN: Quickly give me recorded polyreactivity (PSR sort gate) for LVQLQESGGGLVQAGGSLRLSCAASGTNSPGGYMGWYRKAPGKERELVASINVGGSTNYADSVKGRFTISRDNAKNTVYLQMNSLKPEDNAVYFCAVWGRNRLQLSYWGQGTQVTVSS
OUT: low polyreactivity

IN: Quickly give me recorded polyreactivity (PSR sort gate) for QVQLVESGGGLVQAGGSLRLSCAASGRIFYYNAMGWYRQAPGKEREFVAAITYRGGSTYYADSVKGRFTISRDNAKNTVYLQMNSLKPEDTAVYYCAARSAWQVAPRGRTVAFDYWGQGTQLTVSS
OUT: high polyreactivity

IN: Quickly give me recorded polyreactivity (PSR sort gate) for QVQLVESGGGLVQAGGSLRLSCAASGIIFFTYAMGWYRQATGKERELVAAISSGGSTTYADSVKGRFTISRDNAKNTVYLQMNSLKPEDTAVYYCAAGTQAHDYVVRPIDMDYWGQGTQVTVSS
OUT: low polyreactivity

IN: Quickly give me recorded polyreactivity (PSR sort gate) for QVQLVESGGGLVQAGGSLRLSCAASGRTLTAYAMGWYRQAPGKERELVAAISVTGDNTYYADSVKGRFTISRDNAKNTVYLQMNSLKPEDTAVYYCDARKQYKYGYWGQGTQVTVSS
OUT: low polyreactivity

IN: Quickly give me recorded polyreactivity (PSR sort gate) for QVQLVESGGCIVQAGGSLRLSCAASGRNLAPNAMGWSRQAPGKERELVAGITWSGGSTYYADSVKGRFTISRDNAKNTVYLPMNSLKPEDTAVYYCAACRSFPGYGLYYYWGQGTQVTVSS
OUT: low polyreactivity

IN: Quickly give me recorded polyreactivity (PSR sort gate) for QVQLVESGGGLVQAGGSLRLSCAASGSIFYTYAMGWYRPAPGKEREFVAAITSSGGSTYYADSVKGRFTISRDNAKNTVYLQMNSLKPEDTAVYYCAARTPHYGKCYDIFDYWGQGTQVTVSS
OUT: low polyreactivity

* * *

method.description: yeast display, Sf9 membrane polyspecificity reagent, FACS + sequencing; frameworks hold sequencing errors
observable: polyreactivity (PSR sort gate)

QVQLVESGGGLVQAGGSLRLSCAASGFTFTRNTMGWYRQAPGKERELVADINWDDGSTNYADSVKGRFTISRDNAKNTVYLQMNSLKPEDTAVYYCAADYYFYYLYPSSNLYNYWGQGTQVTVSS = low polyreactivity
QVQLVESGGGLVQAGGSLRLSCAASGLIFVSYAMGWYRQAPGKERELVAAISSGGSTYYADSVKGRFTISRDNAKNTVSLQMTSLKPEDTAVYYCNADGFYSWLYDYWGQGTQVTVSS = low polyreactivity
QVQLEESGVGLVQAGGSLRLSCAASGRTFHIYAMGWYRQAPGKERELVADIRGRSGSTYYADSVKGRFTISRDNAKITVYLQMNSLKPEDTAVYYCAVGRYPYCSARYRFDYWGQGTQVSVSS = high polyreactivity
QVQLVESGGGLVQAGGSLRLSCAASGRIFLGYTMGWYRQAPGKERELVAAISYSGGSTYYADSVKGRFTISRDYAKNTVYFQMNSLKPEDTAVYYCNKVYSIRGYWGQGTQVTVSS = high polyreactivity

With those in mind, consider the next sequence.
IN: Quickly give me recorded polyreactivity (PSR sort gate) for QVQLVESGGGLFQAGGSLRLSCAASGLIFRAYAMVWYRQSPGKERELVADITRSGGRTYYADSVKGRFTISRDNAKNTVYLQMNSLKPEDTAVYYCAAYVYSYWFYRGYEYWGQGTQVTVSS
OUT: high polyreactivity

* * *

method.description: yeast display, Sf9 membrane polyspecificity reagent, FACS + sequencing; frameworks hold sequencing errors
observable: polyreactivity (PSR sort gate)

Would you please look over these solved cases?
QVQLVESGGGLVQAGGSLRLSCAASGSIYVNAMGWYRQAPGKERELVAVISKSGGSTYYADSVKGRFTISRDNAKNTVYLQMNSLKPEDTAVYYCATRGVSPSRPGYYWGQGTQVTVSS = high polyreactivity
QVQLVESGGGLVQAGGSLRLSCAASGFIFSYNAMGWYRQAPGKERELVAAISSRGGSTYYADSVKGRFTISRDNAKNTVYLQTKSLKPEDTAVYYCAVASRRVYTAPYDYWGQGTQVTVSS = high polyreactivity
QVQLVESRGGLVQAGASLRLSCAASALIFGYYAMGCYRQAPVKEREFVAAIDGSDGTTYYADSVKGRFTIARDNAKNTVYLQMNSLKPEDTAVYYCNADSSSYSSDLGYDYWGQGTQVTVSS = low polyreactivity
QVQLVESGGGLVQAGGSLRLSCAASGRIFKVYAMGWYRQAPGKERELVAAITWSGVSTYADSVKGRFTISRDNAKNTVYLQMNSLKPEDTAVYYCAAYLRSPGDRQGYYYWGQGTQVTVSS = high polyreactivity
QVQLVESGGGLVQAGGSLRLICAASGLIFPSYAMGWYRQAPGKERELVAGINSGGSTNYADSVKGRFTISRDNAKNTVYLQMNSLKPEDTAVYYCAKDNNYYWYVSPRDYWGQGTQVTVSS = low polyreactivity

IN: Quickly give me recorded polyreactivity (PSR sort gate) for QVQLVESGGGLVQAGGSLRLSCAASGFTFFTYAMGWYRQAPGKERELVAAITSGGSTNYADSVKGRFTISRDNAKNTVYLQMNSLKPEDTAVYYCATRAYSDATTFYGYQRSDSWGQGTQVTVSS
OUT: low polyreactivity

IN: Quickly give me recorded polyreactivity (PSR sort gate) for QVQLVESGGGLVQAGGSLRLSCAAYGSIFFGNVMGWYRQAPGKARELVAVISWSGGTTYYADSVKGRFTISRDNAKNTVYLQMNSLKPEDTAVYYCNARYLRRGDYWGQGTQVTVSS
OUT: low polyreactivity

IN: Quickly give me recorded polyreactivity (PSR sort gate) for QVQLVESGGGLVQAGGSLRLSCADSGIIFWRYAMGWYRQAPGKERELVATITSGGSTDYADSVKGRFTISRDNAKNTVYLQMNSLKPEDTAVYYCAALGYATGYWRYYYWGQGTQVTVSS
OUT: low polyreactivity

IN: Quickly give me recorded polyreactivity (PSR sort gate) for QVQLVESGGGLVQAGGSLRLSCAASGSIFYSNAMGWYRQAPGKEREFVAAISAGGGSTYYADSVKGRFTISRDNAKNPVYLQMNSLKPEDTAVYYCAAQQYKIIYPYDYWGQGTQVTVSS
OUT: low polyreactivity

IN: Quickly give me recorded polyreactivity (PSR sort gate) for QVQLVESGGGIVQAGGSLRLSCAASGRSFDPYAMGWYRQAPGKERELVAAISRSGGSTYYADSVKGRFTISRDNAKNTVYLQMNSLKPEDTAFYYCAADDSRYYYEYDYWGQGTQVTVSS
OUT: high polyreactivity

IN: Quickly give me recorded polyreactivity (PSR sort gate) for QVQLVESGGGLVQAGGSLRLSCAASGNILTTYAMGWYRQAPGKERELVAAIRWSDGSTYYADSVKGRFTISRDNAKNTVYLQMYSLKPEDNAVYYCAADYHYPTWQGGYHYGYWGQGTQVTVSS
OUT: high polyreactivity

* * *

method.description: yeast display, Sf9 membrane polyspecificity reagent, FACS + sequencing; frameworks hold sequencing errors
observable: polyreactivity (PSR sort gate)

QVQLVESGGGLDQAGGSLRLSCAASGRIFIKNTMGWYRQAPGKERELVAAITSSGSSTYYADSVKGRFTISRDNAKNTVYLKMNSLKPEDTAVYYCNALTWDHSRTGVDYWGQGTQVTVSS = low polyreactivity
QVQLVESGGGLVQAGGSLRLSCAASGSTFFDYAMGWYRQAPGKERELVAAISRSGDTNYADSVKGRFTMSRDNAKNTVYLHMNSLKPEDTAVYYCAKYWAYRRHWVGFYYWGQGTLVTVSS = low polyreactivity
QVQLVESGGGLVQAGGSLRLSCAASGYTFRYYGMGWYRQAPGNERELVADINSNGVRTYYADSVKGRFTISRDNAKNTVYVQMNSLKPEDTAVYYCNKDWGRYRYDYWGQGTQVTVSS = high polyreactivity
QVQLVESGGGLVQAGGSLRLSCAASGRTFFNYAMGWYRQAPGKERELVAAISFSDGSTYYADSVKGRFTISRDNAKNTVYLQMNSLKPEDTADYYCAAQPGRRAGRSGFDYWGQGTQVTVSS = high polyreactivity
QVQLVESVGGLVQAGGTRRLSCDASGRTFGLNVMGWYRHAPGKERELVASIRNIGGSTYYADSVKWRFTISCDNAKNTVYLQMNSLKPEDTAVYYCAADYNLVVQGYDYWGQGTQVTVSS = high polyreactivity
QVLLQESGGGLVQAGGSLRLSCAASGSIFLFYTMGWYRQAPVKEREFVAGITLGTTTYNADSVKGRFTISRDNVKNTVYLQMNSLKPEATAVYYCAVAVGHYTVFWYWGQGTQVTMSS = high polyreactivity
QVQLVESGGGLVHAGGSLRLSCAASGSTFRSYAMGWYRQAPGKERELVARISYRTGSTYYADSVKGRFTISRDYAKNTVYLQMNSLKPEDTAVYYCATRGSYVGGLYDYWGQGTQVTVSS = high polyreactivity
QVQLVESGGGLVQAGCSLRLSCDASGRIFVTNAMGWYRQAPGKERELVAANSYRGGRTYYADSVKGRFTISRDNAKNTVYLQMNSLKPEDTAVYYCNAVTRWPFDYWGQGTQVTVSS = high polyreactivity

IN: Quickly give me recorded polyreactivity (PSR sort gate) for QVQLVESGGGLVQAGGSLSLSCAAYGITISIYSMGSYRQAPGKERELVAAINSGGTTYYADSVKGRFTISRDNAKNTVYLQMNSLKPEDTAVYYCADEYFAYPYEFYGGQGTQVTVSS
OUT: high polyreactivity

IN: Quickly give me recorded polyreactivity (PSR sort gate) for QGQLEDSGGGLVQAGGSLRLSCAASGLTYDHNAMGWYRNATGKEREFFAVISWRGTSTYYADSVKGRFTISRDNAKNTVFLQMHSLKPEDTAVYYCATRYYGDDVYRYDHWGQGTQVTVSS
OUT: high polyreactivity

IN: Quickly give me recorded polyreactivity (PSR sort gate) for QVQLVESGGGLVQAGGSLRLSCAASGITIWWYAMGWYRQAPGKERELLAAITGGGSTNYADSVKGRFTISRDNAKNTVYLQMNSLKPEDTAVYYCAATGSPARNWDTVTGYYYWGQGTQVTVSS
OUT: low polyreactivity

Attribution: the nanobody polyreactivity screen of Harvey et al. (2022)
